Hello, the source for this data is PubChem BioAssay (NCI), in case you need it.

- System: BT-549 breast
- protocol notes: NCI tumour cell line growth inhibition, 48 h
parameter measured: TGI

>  <compound>
CC(C)(C)OC(=O)NCCCCC1NC(=O)[C@@H]2Cc3c([nH]c4ccccc34)C(C3CCCCC3)N2C1=O (some centres undefined)

>  <TGI>
> 100 µM

$$$$
>  <compound>
S=C1Nc2ccccc2SC1c1ccccc1 (centres undefined)

>  <TGI>
> 100 µM

$$$$
>  <compound>
CC(C)=CCc1c2c(c3occ(-c4ccc(O)cc4)c(=O)c3c1O)CC(C(C)(C)O)O2 (centres undefined)

>  <TGI>
31 µM

$$$$

Here is the next item to consider.
// lookup TGI | system=BT-549 breast | key= `O=C(Nc1ccc(-n2ccc3c(NC(=O)c4ccccc4)nccc32)cc1)c1ccc(Cl)c(C(F)(F)F)c1`
> 50 µM
